target: T1, human CD71 extracellular domain (human, UniProt P02786 89-760, biotinylated); assay: primary ELISA, RLU over HSA
T1 construct: also called hCD71; CD71-ECD
T1 sequence (P02786 89-760): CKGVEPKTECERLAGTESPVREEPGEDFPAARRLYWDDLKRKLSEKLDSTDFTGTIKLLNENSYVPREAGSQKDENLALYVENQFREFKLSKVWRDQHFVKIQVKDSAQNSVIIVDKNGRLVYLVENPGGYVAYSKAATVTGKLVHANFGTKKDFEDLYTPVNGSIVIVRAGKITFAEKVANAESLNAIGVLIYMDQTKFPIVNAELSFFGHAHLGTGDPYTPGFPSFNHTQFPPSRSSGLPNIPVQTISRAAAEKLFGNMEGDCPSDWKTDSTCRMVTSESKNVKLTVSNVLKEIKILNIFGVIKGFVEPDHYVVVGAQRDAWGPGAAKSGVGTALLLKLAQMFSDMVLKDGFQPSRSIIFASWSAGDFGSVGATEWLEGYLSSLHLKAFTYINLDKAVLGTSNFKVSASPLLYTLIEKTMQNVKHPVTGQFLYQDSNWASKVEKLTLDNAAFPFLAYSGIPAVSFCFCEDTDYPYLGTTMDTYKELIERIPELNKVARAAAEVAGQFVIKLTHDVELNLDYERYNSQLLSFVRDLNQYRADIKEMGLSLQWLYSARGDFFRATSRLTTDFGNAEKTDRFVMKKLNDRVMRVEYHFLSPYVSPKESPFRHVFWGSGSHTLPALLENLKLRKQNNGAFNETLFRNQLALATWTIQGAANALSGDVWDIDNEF
observationType: hCD71:HSA

binder	reportedValue
CD71-binding FN3 domain of SEQ ID NO: 482 (designed binder) MLPAPKNLIVSRVTEDSARLSWTAPDAAFDSFFIGYLEPQPPGEAIHLQVPGSERSYDLTGLKPGTEYNVTIQGVKGGFPSNPLHAEFTT	247
CD71-binding FN3 domain of SEQ ID NO: 509 (designed binder) MLPAPKNLVVSRVTEDSARLSWTAPDAAFDSFEIGYWENAYKGEAIVLTVPGSERSYDLTGLKPGTEYEVFIGGVKGGVWSVPLSAIFTT	134
CD71-binding FN3 domain of SEQ ID NO: 540 (designed binder) MLPAPKNLVVSRVTEDSARLSWTAPDAAFDSFYIAYAEPRPDGEAIILVVPGSERSYDLTGLKPGTEYSVLIHGVKGGLLSSPLDAGFTT	198
CD71-binding FN3 domain of SEQ ID NO: 468 (designed binder) MLPAPKNLVVSRVTEDSARLSWTAPDAAFDSFLIQYDEEGVWGEAIVLTVPGSERSYDLTGLKPGTEYSVGIGGVKGGWSSVPLSAIFTT	71

Measured values drawn from patent US20260151494A1 for this set.
